Source: the supplement of paper PMC7877785

measurement_notes: self-splicing fitness, log relative to wild type (ln ratio); higher = more splicing; Tetrahymena group I intron in knt gene, E. coli kanamycin selection, DiMSum; sequences stand for … in CUCUCU…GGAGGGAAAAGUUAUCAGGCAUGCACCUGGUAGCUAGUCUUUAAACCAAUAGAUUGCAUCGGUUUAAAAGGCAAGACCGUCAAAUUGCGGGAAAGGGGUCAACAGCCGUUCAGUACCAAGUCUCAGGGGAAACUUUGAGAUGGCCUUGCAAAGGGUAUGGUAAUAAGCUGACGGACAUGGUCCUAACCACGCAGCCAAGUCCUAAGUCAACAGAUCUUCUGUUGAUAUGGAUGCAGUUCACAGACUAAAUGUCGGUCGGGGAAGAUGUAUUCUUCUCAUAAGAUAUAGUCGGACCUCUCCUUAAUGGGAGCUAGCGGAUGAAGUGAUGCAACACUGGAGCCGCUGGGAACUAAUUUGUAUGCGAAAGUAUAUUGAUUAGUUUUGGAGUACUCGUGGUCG;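 note: selection with 25 µg/mL kanamycin versus none on LB agar overnight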
experimental_parameters: 30 °C
measurement_name: self-splicing fitness (ln)
In your answer, state the number alone without any accompanying words.

| sequence_entry | self-splicing fitness (ln) |
| --- | --- |
| GAUAAGCAAUAUUACGGAAU | -3.09 |
| GAGCAGCAAUAUUACGAAUU | -1.95 |
| AUGGAGCAAUAUUACGAUGA | -2.98 |
| CAAGAGCAAUAUUACGCUGA | -2.97 |
| ACGGAGCAAUAUUACGGAUC | -3.09 |

Here is the next item to consider.
Query: Consider the sequence shown here: AAAGAGCAAUAUUACGUGCC What is its recorded self-splicing fitness (ln)?
Reply: -3.09
